System: RKO
PROCEDURE SUMMARY: Cytotoxicity against human RKO cells assessed as inhibition of cell proliferation measured after 48 hrs by MTT assay
Format: functional, cell-based
pIC50: −log10 of the molar value.
As shown below, each of these compounds has a reported pIC50 value.
OBSERVED PROPERTY: pIC50

INSERT INTO measurements (substance_smiles, study_target, endpoint_value) VALUES
  ('CC(=O)O[C@H]1[C@H]2O[C@]23[C@@H]2CC[C@@H]4C[C@@H](O)CC[C@]4(C)[C@H]2CC[C@]3(C)[C@H]1c1ccc(=O)oc1', 'RKO', 6.74),
  ('C[C@@H]1CC[C@@]2(OC1)O[C@H]1C[C@H]3[C@@H]4CC=C5C[C@H](O[C@@H]6O[C@H](CO)[C@@H](O)[C@H](O[C@@H]7O[C@H](CO)[C@@H](O)[C@H](O)[C@H]7O)[C@H]6O[C@@H]6O[C@@H](C)[C@H](O)[C@@H](O)[C@H]6O)CC[C@]5(C)[C@H]4CC[C@]3(C)[C@H]1[C@@H]2C', 'RKO', 5.51);

====

Test system: HT-29
PROCEDURE SUMMARY: Antiproliferative activity against human HT-29 cells measured after 72 hrs by SRB method
Type: functional, cell-based
CONDITION SUMMARY: HT-29, 72 h
OBSERVED PROPERTY: IC50 (µM)

INSERT INTO measurements (molecule, observed_property, unit_of_measure, endpoint_value) VALUES
  ('O=C(Nc1ccc([N+](=O)[O-])cc1Cl)c1cc(Cl)ccc1O [NICLOSAMIDE]', 'IC50', 'µM', 4.66);

====

Tested on: SW480
PROCEDURE SUMMARY: Antiproliferative activity against human SW480 cells assessed as inhibition of cell growth by CellTiter 96 Aqueous One Solution Cell Proliferation Assay
Type: functional, cell-based
pIC50: −log10 of the molar value.
OBSERVED PROPERTY: pIC50

INSERT INTO results (substance_smiles, endpoint_value) VALUES
  ('CC(C)=CCc1cc(-c2coc3cc(O)c(CC=C(C)C)c(O)c3c2=O)cc(O)c1O', 5.16);

====

STUDY TARGET: Signal transducer and activator of transcription 3 (Homo sapiens, UniProt P40763)
Sequence (P40763 whole entry): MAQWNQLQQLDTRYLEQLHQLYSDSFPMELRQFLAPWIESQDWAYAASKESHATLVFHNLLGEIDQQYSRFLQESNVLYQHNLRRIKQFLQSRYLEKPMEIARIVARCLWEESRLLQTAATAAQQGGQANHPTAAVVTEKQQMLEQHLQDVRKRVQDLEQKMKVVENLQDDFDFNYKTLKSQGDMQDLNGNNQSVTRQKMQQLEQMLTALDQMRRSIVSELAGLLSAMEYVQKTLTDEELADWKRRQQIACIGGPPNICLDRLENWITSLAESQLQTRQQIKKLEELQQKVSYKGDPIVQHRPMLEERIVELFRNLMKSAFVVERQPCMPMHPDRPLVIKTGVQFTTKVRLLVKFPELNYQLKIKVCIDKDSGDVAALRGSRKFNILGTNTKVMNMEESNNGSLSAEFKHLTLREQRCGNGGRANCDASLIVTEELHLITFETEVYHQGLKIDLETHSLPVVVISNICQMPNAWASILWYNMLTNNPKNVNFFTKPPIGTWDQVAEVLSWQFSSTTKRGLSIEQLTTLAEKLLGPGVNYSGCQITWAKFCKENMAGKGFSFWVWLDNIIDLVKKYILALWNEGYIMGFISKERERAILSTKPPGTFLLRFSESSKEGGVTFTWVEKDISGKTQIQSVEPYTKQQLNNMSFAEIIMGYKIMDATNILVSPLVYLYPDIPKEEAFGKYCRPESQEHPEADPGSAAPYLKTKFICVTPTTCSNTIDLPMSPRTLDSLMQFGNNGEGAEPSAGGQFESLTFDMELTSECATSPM
PROCEDURE SUMMARY: Binding affinity to GFP tagged STAT3 (unknown origin) assessed as dissociation constant by microscale thermophoresis analysis
OBSERVED PROPERTY: Kd (µM)

INSERT INTO measurements (substance_smiles, observed_property, endpoint_value) VALUES
  ('O=C1C(Nc2ccccc2N2CCNCC2)=CC2=NS(=O)(=O)c3cccc1c32', 'Kd', 3.3);

====

Tested on: KM12
PROCEDURE SUMMARY: Cytotoxicity against human KM12 cells
Assay type: functional, cell-based
pIC50: −log10 of the molar value.
OBSERVED PROPERTY: pIC50

INSERT INTO assay_data (substance_smiles, endpoint_value) VALUES
  ('c1ccc(-c2ccc(-c3csc(N/N=C4\CCc5ccccc54)n3)cc2)cc1', 6.39);

====

STUDY TARGET: Signal transducer and activator of transcription 3 (Homo sapiens)
PROCEDURE SUMMARY: Inhibition of STAT3 (unknown origin)
pIC50: −log10 of the molar value.
OBSERVED PROPERTY: pIC50

INSERT INTO measurements (substance_smiles, endpoint_value) VALUES
  ('COC(=O)[C@@]12OC[C@]34[C@H]([C@@H](O)[C@@H]1O)[C@@]1(C)CC(=O)C(O)=C(C)[C@@H]1C[C@H]3OC(=O)[C@H](OC(=O)/C=C(\C)C(C)(C)OC(C)=O)[C@@H]24', 11.62);
